Values were extracted from PubChem BioAssay AID1159580.

test: chemical genetic growth profiling, strain panel (AID 1159580);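 note: tested at 20 µM; growth read once vehicle control cultures reached saturation at 30 °C; 1 = growth at the plate median or of vehicle wells; lower values mean less growth of the strain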; conditions: S. cerevisiae deletion strains, growth OD, locus YIL125W, strain kgd1, active compounds read low
About 2,000 (36%) of roughly 5,500 compounds were called active. Not shown: some 18% with an inconclusive outcome. Some of the results follow.
Reported normalized growth is given for each of the following compounds.
Format: numeric value only, no unit, no commentary.

Compound | normalized growth
COc1cccc2c1cc([N+](=O)[O-])c1c(C(=O)O)cc3c(c12)OCO3 | 0.995

Fill blank: measured normalized growth of the compound Clc1ccc(Cl)cc1 is ____.
0.972

Give its normalized growth value. Item: ClC(Cl)=C(c1ccc(Cl)cc1)c1ccc(Cl)cc1
0.948

If you can, please state the reported normalized growth value of COC(=O)C1=C(C)NC(C)=C(C(=O)OCCN(C)Cc2ccccc2)C1c1cccc([N+](=O)[O-])c1 (stereo not given) .
0.99

Return reported normalized growth; argument: O=c1[nH]c2cc(Cl)c(Cl)cc2[nH]c1=O
1.02

Item Cn1nnnc1SCC1=C(C(=O)O)N2C(=O)C(NC(=O)C(O)c3ccccc3)C2SC1 (stereo not given) has what recorded normalized growth?
1.01
